- target-or-system: T1, CTNI quality control recombinant protein (PK2-CTNI-1, 170120, produced by the applicant) (human, UniProt P19429 2-210, limits assumed)
- T1 construct: also called cardiac troponin I
- T1 sequence (P19429 2-210 limits assumed): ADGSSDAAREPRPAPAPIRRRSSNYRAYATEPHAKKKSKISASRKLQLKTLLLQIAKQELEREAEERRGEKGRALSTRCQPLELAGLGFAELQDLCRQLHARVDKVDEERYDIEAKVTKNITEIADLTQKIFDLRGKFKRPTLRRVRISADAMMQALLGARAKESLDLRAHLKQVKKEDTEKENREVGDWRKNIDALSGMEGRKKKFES
- measurement-description: AMC sensor kinetics, antibody captured, cTnI analyte
pKd: −log10 of the molar value.
observation-type: pKd

# binder, observation-type, meas-value
rows = [
    ("Mutation 1-12 (antibody, V domains shown, built as for Mutation 1) VH: EVQLQQSGAELVKPGASVKLSCTASGFNLKDYFMHWMKQRTEQGLDWIGRIDPEDGETKYAPEFQGKATITADTSSNTAYLQLSTLTSEDTAVYYCARYYSSYLPFVYWGQGTLVTASA VL: DVVMTQTPLSLSVSLGDQASISCRSSQSILYSNRHTYLHWYLQKPGQSPKLLIFQLSNRFSGVPDRFSGSGSGTDFTLKINRVEAEDLGVYFCSQSTHLPYTFGSGTKLEIKR", "pKd", 9.08),
    ("Mutation 1-39 (antibody, V domains shown, built as for Mutation 1) VH: EVQLQQSGAELVKPGASVKLSCTASGFNLKDYFMHWMKQRTEQGLDWIGRIDPEDGETRYAPEFQGKATITADTSSNTAYLQLSTLTSEDTAVYYCARYYSSYVPFVYWGQGTLVTASA VL: DVVMTQTPLSLSVSLGDQASISCRSSQSLIYSNRHTYLHWYLQKPGQSPKLLIFQVSNRFSGVPDRFSGSGSGTDFTLKINRVEAEDLGVYFCSQSTHLPYTFGSGTKLEIKR", "pKd", 9.12),
    ("Mutation 1-21 (antibody, V domains shown, built as for Mutation 1) VH: EVQLQQSGAELVKPGASVKLSCTASGFNLKDYYMHWMKQRTEQGLDWIGRIDPEDAETKYAPEFQGKATITADTSSNTAYLQLSTLTSEDTAVYYCARYYSSYLPFVYWGQGTLVTASA VL: DVVMTQTPLSLSVSLGDQASISCRSSQSLLYSNRHTYLHWYLQKPGQSPKLLIFQLSNRFSGVPDRFSGSGSGTDFTLKINRVEAEDLGVYFCSQSTHLPFTFGSGTKLEIKR", "pKd", 9.17),
    ("Mutation 1-3 (antibody, V domains shown, built as for Mutation 1) VH: EVQLQQSGAELVKPGASVKLSCTASGFNIKDYYMHWMKQRTEQGLDWIGRIDPEDGETKYAPEFQGKATITADTSSNTAYLQLSTLTSEDTAVYYCARYYSSYLPFVYWGQGTLVTASA VL: DVVMTQTPLSLSVSLGDQASISCRSSQSLLYSNRHTYLHWYLQKPGQSPKLLIFQLSNRFSGVPDRFSGSGSGTDFTLKINRVEAEDLGVYFCSQSTHIPYTFGSGTKLEIKR", "pKd", 9.17),
    ("Mutation 1-43 (antibody, V domains shown, built as for Mutation 1) VH: EVQLQQSGAELVKPGASVKLSCTASGFNLKDYYMHWMKQRTEQGLDWIGRIDPEDAETRYAPEFQGKATITADTSSNTAYLQLSTLTSEDTAVYYCARYYSSYVPFVYWGQGTLVTASA VL: DVVMTQTPLSLSVSLGDQASISCRSSQSIIYSNRHTYLHWYLQKPGQSPKLLIFQVSNRFSGVPDRFSGSGSGTDFTLKINRVEAEDLGVYFCSQSTHIPYTFGSGTKLEIKR", "pKd", 9.19),
]
